- System: CAKI-1 renal
- assayName: NCI tumour cell line growth inhibition, 48 h
quantityName: TGI (µM)
Answers are plain numbers, in µM.

# batch size: 2; output TGI per entry
1. O=c1oc2cc(OC/C(=N/O)c3ccc(F)cc3)ccc2c2ccccc12
2. O=C(C#Cc1ccccc1)C1=Cc2ccccc2OC1

[33.4, 3.47]

# batch size: 8; output TGI per entry
1. C[C@H]1CNC(=O)c2cnn3ccc(nc23)N[C@H](C)c2cc(F)ccc2O1
2. CCCCCC[C@@H](C)NC(=O)c1ccc(Nc2nc3ccccc3c3occc23)cc1
3. COc1ccc(-c2ncn(C[Si](C)(C)C)c2-c2ccc(OC)cc2)cc1
4. CCCCCCCC/C=C1\CCC(CN2CCOCC2)C1=O (stereo not given)
5. COC(=O)/C(C#N)=C(\N)C(Cl)(Cl)Cl
6. C=CC(=O)N1C/C(=C\c2ccc([N+](=O)[O-])cc2)C(=O)/C(=C/c2ccc([N+](=O)[O-])cc2)C1
7. ClCc1ccccc1Cn1cnc2c(Cl)ncnc21
8. COC1=C(C)C(=O)C2=C(C1=O)C1C3CC4=C(C(=O)C(OC)=C(C)C4=O)C(CNC(=O)C(C)O)N3C(C#N)C(C2)N1C (stereo not given)

1.59
28.3
21.9
23.8
17.5
0.801
4.14
2

----------
- System: SR leukemia
- assayName: NCI tumour cell line growth inhibition, 48 h
quantityName: TGI

O=C(C/C(=N/O)C(F)(F)F)c1cccs1 : > 100 µM
O[C@@H]1CCC[C@@H]2NC[C@@H](c3ccc4c(c3)OCO4)[C@H]12 : > 100 µM
Nc1ccc(COC(O)CN2CCCCC2)cc1[N+](=O)[O-] (stereo not given) : > 100 µM

# batch size: 2; output TGI per entry
1. Cc1cc2c(cc1C)C(=O)C1(C2)Cc2cc3c(cc2C1=O)CCC3 (stereo not given)
2. COC(=O)[C@@H](C)[C@H]1CC[C@@](C)(CCC2=C(C)CC3C=C(C)CCC3C2(C)C)OO1 (stereo not given in full)

1: > 100 µM; 2: 3.87 µM

# batch size: 3; output TGI per entry
1. O=c1[nH]c2nccn2c2c1SCCN2
2. COc1cccc2cc(C(=O)Nc3ccccc3)c(=N)oc12
3. CCOC(=O)CCN1C(=O)C(=O)N(c2ccc(OC)cc2)C1=S

1. > 100 µM
2. > 100 µM
3. > 100 µM

----------
Exercise: for every item that follows, state its recorded TGI.
- System: KM12 colon
- assayName: NCI tumour cell line growth inhibition, 48 h

Here are 3 compounds together with their reported answers.
COc1ccc(C(=O)CC2=Nc3nnc(CCCCCCCc4nnc5n4C(=O)C(CC(=O)c4ccc(OC)cc4)=N5)n3C2=O)cc1 : > 100 µM
C[n+]1c2ccccc2nc2ccccc21 : 12.2 µM
c1ccc(SC23C4C5C6C4C2C6C53)nc1 (centres undefined) : > 100 µM

Retrieve TGI measured for "CC(=O)O[C@H]1C(=O)[C@@]2(C)[C@H]([C@H](OC(=O)c3ccccc3)[C@]3(O)C[C@H](OC(=O)[C@H](O)[C@@H](NC(=O)c4ccccc4)c4cccc(N(C)C)c4)C(C)=C1C3(C)C)[C@]1(OC(C)=O)CO[C@@H]1C[C@@H]2O" and print it.
> 24.7 µM

----------
- System: SF-539 CNS
- assayName: NCI tumour cell line growth inhibition, 48 h
Exercise: for every item that follows, state its recorded TGI.

Here are 4 compounds together with their reported answers.
N/N=C(\c1nc2ccc(Cl)cc2[nH]c1=O)C(O)c1ccc(Cl)c(Cl)c1 (stereo not given) : > 100 µM
COC(=O)[C@]1(c2cc3ccccc3[nH]2)CC2CN(C(=O)OCc3ccccc3)C1CC2=O (stereo not given in full) : > 100 µM
Cc1[nH]c(N)nc(=S)c1CCC(=O)O : > 100 µM
COc1cc(C2C3=C(CCCC3=O)N(c3ccc(C)cc3)C3=C2C(=O)CCC3)c([N+](=O)[O-])cc1OC : > 100 µM

// moving on: another record for TGI
Retrieve TGI measured for CCN(CC)CC1CN=C(N)O1 (stereo not given) and print it.
> 100 µM
